Measured values drawn from paper PMC7700809 for this set.

Assay: In vivo plasma pharmacokinetics in rats
Design: species or system Sprague-Dawley rats
Conditions: Sprague-Dawley, iv, Rat, I.V. 1 mg/kg
assay-metric: AUC(0-inf) (ng·h/mL)

mol-smiles	reported-result
CC[C@H]1CN2CCc3cc(OC)c(OC)cc3[C@@H]2C[C@@H]1C[C@H]1NCCc2cc(OC)c(OC)cc21	39.8

---

Assay: in vivo
Conditions: mouse, iv, 1 mg/kg, Cmax, mice, I.V. 1 mg/kg, Liver

mol-smiles	unit-info	Cmax
CC[C@H]1CN2CCc3cc(OC)c(OC)cc3[C@@H]2C[C@@H]1C[C@H]1NCCc2cc(OC)c(OC)cc21	ng/mL	4420

---

Test: in vivo
Settings: male, mouse, lung, po, 1 mg/kg/day
assay-metric: concentration at 72 h (nM)

mol-smiles	reported-result
CC[C@H]1CN2CCc3cc(OC)c(OC)cc3[C@@H]2C[C@@H]1C[C@H]1NCCc2cc(OC)c(OC)cc21	2170

---

Assay: in vivo
Settings: mouse, iv, 1 mg/kg, MRT0-∞, mice, I.V. 1 mg/kg, Lung

mol-smiles	MRT inf / h
CC[C@H]1CN2CCc3cc(OC)c(OC)cc3[C@@H]2C[C@@H]1C[C@H]1NCCc2cc(OC)c(OC)cc21	15.9

---

Experiment: in vivo
Conditions: mouse, iv, 1 mg/kg, Tmax, mice, I.V. 1 mg/kg, Kidney
assay-metric: Tmax (min)

molecule	reported-result
CC[C@H]1CN2CCc3cc(OC)c(OC)cc3[C@@H]2C[C@@H]1C[C@H]1NCCc2cc(OC)c(OC)cc21 [Emetine]	30

---

Assay: In vivo plasma pharmacokinetics in mice
Settings: male, mouse, po, P.O. 10 mg/kg
assay-metric: AUC(0-t) (ng·h/mL)

mol-smiles	reported-result
CC[C@H]1CN2CCc3cc(OC)c(OC)cc3[C@@H]2C[C@@H]1C[C@H]1NCCc2cc(OC)c(OC)cc21	811

---

Experiment: In vivo plasma pharmacokinetics in mice
Details: male, mouse, iv, I.V. 1 mg/kg, read-out: Vz

mol-smiles	unit-info	Vd
CC[C@H]1CN2CCc3cc(OC)c(OC)cc3[C@@H]2C[C@@H]1C[C@H]1NCCc2cc(OC)c(OC)cc21	L/kg	38.4

---

Assay: In vivo plasma pharmacokinetics in mice
Settings: male, mouse, po, P.O. 10 mg/kg

mol-smiles	AUC(0-inf) / ng·h/mL
CC[C@H]1CN2CCc3cc(OC)c(OC)cc3[C@@H]2C[C@@H]1C[C@H]1NCCc2cc(OC)c(OC)cc21	1340

---

Test: in vivo
Conditions: mouse, iv, 1 mg/kg, Cmax, mice, I.V. 1 mg/kg, Lung
assay-metric: Cmax

mol-smiles	reported-result
CC[C@H]1CN2CCc3cc(OC)c(OC)cc3[C@@H]2C[C@@H]1C[C@H]1NCCc2cc(OC)c(OC)cc21	8580 ng/mL

---

Experiment: In vivo plasma pharmacokinetics in rats
Parameters: species or system Sprague-Dawley rats
Details: Sprague-Dawley, po, Rat, P.O. 10 mg/kg

mol-smiles	Tmax
CC[C@H]1CN2CCc3cc(OC)c(OC)cc3[C@@H]2C[C@@H]1C[C@H]1NCCc2cc(OC)c(OC)cc21	9 h

---

Assay: in vivo
Conditions: mouse, iv, 1 mg/kg, MRT0-t, mice, I.V. 1 mg/kg, Lung
assay-metric: MRT last (h)

mol-smiles	assay-metric	unit-info	reported-result
CC[C@H]1CN2CCc3cc(OC)c(OC)cc3[C@@H]2C[C@@H]1C[C@H]1NCCc2cc(OC)c(OC)cc21	MRT last	h	5.13
